For each entry below, report its IC50 value.
Molecular target: SCD1 (Homo sapiens, UniProt O00767)
Construct: host or cells: S. cerevisiae ole1Δ strain (W303 pdr1Δ pdr3Δ background), plasmid pRS316 with TDH3 promoter and CYC1 terminator
Sequence (O00767 whole entry): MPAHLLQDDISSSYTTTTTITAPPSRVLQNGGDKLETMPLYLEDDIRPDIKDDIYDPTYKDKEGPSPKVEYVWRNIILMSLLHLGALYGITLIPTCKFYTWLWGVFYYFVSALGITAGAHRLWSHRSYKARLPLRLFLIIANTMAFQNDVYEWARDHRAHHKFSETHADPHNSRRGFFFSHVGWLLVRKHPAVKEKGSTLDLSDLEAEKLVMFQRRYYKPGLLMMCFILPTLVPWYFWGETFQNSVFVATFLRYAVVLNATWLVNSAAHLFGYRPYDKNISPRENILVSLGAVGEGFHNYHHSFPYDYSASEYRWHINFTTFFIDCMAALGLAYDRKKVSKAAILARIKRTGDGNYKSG
Experiment: Growth inhibition of humanized yeast strain expressing SCD1 as sole desaturase
Assay type: cell-based
Conditions: humanized yeast strain, 40 h
Method: Strain oleΔ (yeast ole1 deletion mutant) was constructed by deleting OLE1 with NAT-MX6 in BY4741, amplifying the deletion cassette from the genomic DNA of the resulting strain with primers flanking the ORF by 1000 bp upstream and downstream, transforming the resulting deletion cassette into W303 pdr1Δ pdr3Δ, and plating transformants on YPD media containing G418 (200 μg/mL) and nourseothricin ([…]) with 0.01% TWEEN®-20 and 0.5 mM oleic and palmitoleic acids. […]

Problem: I would be grateful if you could share the reported IC50 for COc1cc(-c2nc(C3CCN(C(=O)OC(C)(C)C)CC3)no2)cc2c1cnn2C1COC1 [Compound 1076] .
Result: > 45 µM

Problem: I would be grateful if you could share the reported IC50 for CCC(=O)N1CCC(c2noc(-c3ccc(N4CCOCC4)cc3)n2)CC1 [Compound 1166] .
Result: > 45 µM

Problem: I would be grateful if you could share the reported IC50 for CC(C)(C)OC(=O)N1CCC(c2noc(-c3ccc4cnc(C5COC5)n4c3)n2)CC1 [Compound 909] .
Result: > 45 µM

Problem: I would be grateful if you could share the reported IC50 for CC(C)(C)OC(=O)N1CCC(c2noc(-c3cc(F)c4cnn(C5CCOC5)c4c3)n2)CC1 (centres unmarked) [Compound 1075] .
Result: 4.4 µM

Problem: I would be grateful if you could share the reported IC50 for COC(=O)N1CCC(c2nc(-c3ccnc(NC(C)C)c3)no2)CC1 [Compound 815] .
Result: > 45 µM

Problem: I would be grateful if you could share the reported IC50 for CC(C)(C)OC(=O)N1CCN(c2noc(-c3cccc(C4CCOC4)c3)n2)CC1 (centres unmarked) [Compound 778] .
Result: > 45 µM

Problem: I would be grateful if you could share the reported IC50 for O=C(CC1CC1)N1CCN(c2noc(-c3ccc4cnn(C5COC5)c4c3)n2)CC(F)(F)C1 [Compound 1035] .
Result: > 45 µM

Problem: I would be grateful if you could share the reported IC50 for O=C(N1CCC(c2noc(-c3ccc4cnn(C5COC5)c4c3)n2)CC1)C12CC(C1)C2 [Compound 890] .
Result: 22.7 µM
